Tested on: human plasma proteins
Experiment: Protein binding to human plasma proteins using equilibrium dialysis
Type: in vitro ADME
Conditions: pH 7.4, equilibrium dialysis 6 h, 37° C.
Listing: fraction unbound at 6 h, 2000 ng/mL of selected compounds

Guide cases for fraction unbound at 6 h, 2000 ng/mL, answers given:
[[record]]
compound = "COc1cc2ncn(-c3cc(OC(C)c4ccccc4Cl)c(C(N)=O)s3)c2cc1OC (centres unmarked) [Com. Ex 126, reference compound]"
targetdesc = "human plasma proteins"
result = "< 0.02"

[[record]]
compound = "NC(=O)c1sc(-n2cnc3ccc(OCC4CCNCC4)cc32)cc1OCc1ccccc1C(F)(F)F [Com. Ex 143, reference compound]"
targetdesc = "human plasma proteins"
result = "> 0.05"

[[record]]
compound = "COc1cc2ncn(-c3cc(OCc4ccccc4C(F)(F)F)c(C(N)=O)s3)c2cc1OCCN1CCN(C)CC1 [Com. Ex 136, reference compound]"
targetdesc = "human plasma proteins"
result = "> 0.05"

[[record]]
compound = "C[C@@H](Oc1cc(-n2cnc3ccc(CS(C)(=O)=O)cc32)sc1C(N)=O)c1ccccc1C(F)(F)F"
targetdesc = "human plasma proteins"
result = "0.02 to 0.05"


For the next question, use this compound.
Request: Give the measured fraction unbound at 6 h, 2000 ng/mL of `C[C@@H](Oc1cc(-n2cnc3ccc(OC4CCNCC4)cc32)sc1C(N)=O)c1ccccc1Cl` .
Response: > 0.05

---

Tested on: SKOV-3
Experiment: Cell-Titer-Glo inhibition of cell proliferation, SKOV-3
Format: cell-based
Conditions: Homo sapiens, SK-OV-3, CellTiter-Glo, 72 h
pIC50: −log10 of the molar value.
quantity: pIC50

[[record]]
inputsmiles = "C[C@@H](Oc1cc(-n2cnc3ccc(OC4CCNCC4)cc32)sc1C(N)=O)c1ccccc1C(F)(F)F"
quantity = "pIC50"
result = "> 6.30"


For the next question, use this compound.
Request: Fill in the recorded pIC50 for this compound, with SKOV-3 as test system: `C[C@@H](Oc1cc(-n2cnc3ccc(CN4CCN(C)CC4)cc32)sc1C(N)=O)c1ccccc1C(F)(F)F`
Response: > 6.30

---

Target: PLK1 kinase domain (Homo sapiens)
Construct: made in house; host or cells: baculovirus infected T. ni cells
Sequence (P53350 21-346): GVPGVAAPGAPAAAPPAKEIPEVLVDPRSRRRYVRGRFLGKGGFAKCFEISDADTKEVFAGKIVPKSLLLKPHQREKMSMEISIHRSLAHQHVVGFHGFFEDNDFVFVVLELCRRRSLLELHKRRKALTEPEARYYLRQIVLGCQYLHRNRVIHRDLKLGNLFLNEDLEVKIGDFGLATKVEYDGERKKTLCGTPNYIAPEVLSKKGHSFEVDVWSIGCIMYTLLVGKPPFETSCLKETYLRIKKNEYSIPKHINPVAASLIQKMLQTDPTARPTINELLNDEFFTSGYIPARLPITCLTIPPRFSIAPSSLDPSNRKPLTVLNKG
Experiment: Assay for inhibition of PLK1 (SPA, 33P-ATP, biotinylated peptide substrate)
Format: biochemical
Settings: 1 μM ATP, 2 nM PLK1 kinase domain; read-out: PLK1 pIC50 (converted)
Listing: IC50 of selected compounds

Request: Give the measured IC50 of `C[C@@H](Oc1cc(-n2cnc3ccc(OC4CCNCC4)cc32)sc1C(N)=O)c1ccccc1Cl` .
Response: < 10 nM

Request: Give the measured IC50 of CS(=O)(=O)c1ccc2ncn(-c3cc(OCc4ccccc4C(F)(F)F)c(C(N)=O)s3)c2c1 [Com. Ex 121, reference compound] .
Response: 10 to 1000 nM

Request: Give the measured IC50 of COc1cc2ncn(-c3cc(OC(C)c4ccccc4C(F)(F)F)c(C(N)=O)s3)c2cc1OC (centres unmarked) [Com. Ex 127, reference compound] .
Response: < 10 nM

Request: Give the measured IC50 of `C[C@@H](Oc1cc(-n2cnc3ccc(CS(C)(=O)=O)cc32)sc1C(N)=O)c1ccccc1Cl` .
Response: < 10 nM

Request: Give the measured IC50 of `C[C@@H](Oc1cc(-n2cnc3ccc(CN4CCN(C)CC4)cc32)sc1C(N)=O)c1ccccc1Cl` .
Response: < 10 nM

Request: Give the measured IC50 of NC(=O)c1sc(-n2cnc3ccc(OCC4CCNCC4)cc32)cc1OCc1ccccc1C(F)(F)F [Com. Ex 143, reference compound] .
Response: 10 to 1000 nM

Request: Give the measured IC50 of `C[C@@H](Oc1cc(-n2cnc3ccc(CS(C)(=O)=O)cc32)sc1C(N)=O)c1ccccc1C(F)(F)F` .
Response: < 10 nM

Request: Give the measured IC50 of COc1cc2ncn(-c3cc(OCc4ccccc4C(F)(F)F)c(C(N)=O)s3)c2cc1OCCN1CCN(C)CC1 [Com. Ex 136, reference compound] .
Response: 10 to 1000 nM
